PROTOCOL_TEXT: self-splicing fitness, log relative to wild type (ln ratio); higher = more splicing; Tetrahymena group I intron in knt gene, E. coli kanamycin selection, DiMSum; sequences stand for … in CUCUCU…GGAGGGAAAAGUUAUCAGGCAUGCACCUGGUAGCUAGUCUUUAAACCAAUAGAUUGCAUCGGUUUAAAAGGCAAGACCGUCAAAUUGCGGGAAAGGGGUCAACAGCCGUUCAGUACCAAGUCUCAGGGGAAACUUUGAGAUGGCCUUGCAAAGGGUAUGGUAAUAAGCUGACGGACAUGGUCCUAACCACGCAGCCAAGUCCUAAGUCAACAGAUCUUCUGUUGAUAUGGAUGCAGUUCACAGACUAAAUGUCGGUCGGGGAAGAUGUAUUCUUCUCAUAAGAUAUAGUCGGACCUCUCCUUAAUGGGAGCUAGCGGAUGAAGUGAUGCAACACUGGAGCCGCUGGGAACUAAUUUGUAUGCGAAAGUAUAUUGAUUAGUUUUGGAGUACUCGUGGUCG;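 note: selection with 25 µg/mL kanamycin versus none on LB agar overnight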
CONDITION_DESCRIPTION: 37 °C
Can you tell me self-splicing fitness (ln) for the items I'm about to list?

Supply self-splicing fitness (ln) value. Item: CAGGAGCAAUAUUACGGUAG -0.902

Supply self-splicing fitness (ln) value. Item: GAGGAGCAAUAUUACGCGUA -1.6

Supply self-splicing fitness (ln) value. Item: CGGAAGCAAUAUUACGGGAA -2.3

Supply self-splicing fitness (ln) value. Item: CAGUAGCAAUAUUACGUUCU -1.41

Supply self-splicing fitness (ln) value. Item: AGCUAGCAAUAUUACGGCGG -0.547

Supply self-splicing fitness (ln) value. Item: GGUCAGCAAUAUUACGGCGU 0.0889

Supply self-splicing fitness (ln) value. Item: UGCUAGCAAUAUUACGGAAU -2.97

Supply self-splicing fitness (ln) value. Item: GGGCAGCAAUAUUACGGAGG -3.03

Supply self-splicing fitness (ln) value. Item: UAGAAGCAAUAUUACGAGUA -0.33

Supply self-splicing fitness (ln) value. Item: GCUGAGCAAUAUUACGGGCG 0.15

Supply self-splicing fitness (ln) value. Item: UCUUAGCAAUAUUACGUGGU -3.1

Supply self-splicing fitness (ln) value. Item: UCGAAGCAAUAUUACGGUCC -1.95

Supply self-splicing fitness (ln) value. Item: CGGGAGCAAUAUUACGUAGA -1.96

Supply self-splicing fitness (ln) value. Item: CCGCAGCAAUAUUACGUAGG -2.95

Supply self-splicing fitness (ln) value. Item: AUACAGCAAUAUUACGCAGA -1.51

Supply self-splicing fitness (ln) value. Item: GUAAAGCAAUAUUACGGCAG -2.25

Supply self-splicing fitness (ln) value. Item: AUUUAGCAAUAUUACGGCCA -0.925

Supply self-splicing fitness (ln) value. Item: AGCCAGCAAUAUUACGAGUU -0.293

----------
PROTOCOL_TEXT: self-splicing fitness, log relative to wild type (ln ratio); higher = more splicing; Tetrahymena group I intron in knt gene, E. coli kanamycin selection, DiMSum; sequences stand for … in CUCUCU…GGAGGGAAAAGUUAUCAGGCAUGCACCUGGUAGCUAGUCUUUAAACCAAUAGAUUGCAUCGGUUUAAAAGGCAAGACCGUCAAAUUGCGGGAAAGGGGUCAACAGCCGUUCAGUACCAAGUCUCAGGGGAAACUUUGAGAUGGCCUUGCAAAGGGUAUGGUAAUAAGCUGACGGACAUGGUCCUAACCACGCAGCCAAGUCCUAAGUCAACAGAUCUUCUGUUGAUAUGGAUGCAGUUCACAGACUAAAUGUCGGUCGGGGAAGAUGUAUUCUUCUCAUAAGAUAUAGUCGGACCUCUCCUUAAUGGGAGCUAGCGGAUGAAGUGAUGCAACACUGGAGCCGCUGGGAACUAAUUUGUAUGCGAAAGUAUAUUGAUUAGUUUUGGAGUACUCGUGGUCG
CONDITION_DESCRIPTION: 30 °C
Can you tell me self-splicing fitness (ln) for the items I'm about to list?
Please state the value as a number alone, without comment.

Supply self-splicing fitness (ln) value. Item: CGCUAGCAAUAUUACGGUGG -1.71

Supply self-splicing fitness (ln) value. Item: GGUCAGCAAUAUUACGUUGA -3.12

Supply self-splicing fitness (ln) value. Item: GAACAGCAAUAUUACGACGG -3.4

Supply self-splicing fitness (ln) value. Item: AAUUAGCAAUAUUACGGGCA -0.73

Supply self-splicing fitness (ln) value. Item: CUGUAGCAAUAUUACGCAUG -1.06

----------
Can you tell me self-splicing fitness (ln) for the items I'm about to list?
PROTOCOL_TEXT: self-splicing fitness, log relative to wild type (ln ratio); higher = more splicing; Tetrahymena group I intron in knt gene, E. coli kanamycin selection, DiMSum; sequences stand for … in CUCUCU…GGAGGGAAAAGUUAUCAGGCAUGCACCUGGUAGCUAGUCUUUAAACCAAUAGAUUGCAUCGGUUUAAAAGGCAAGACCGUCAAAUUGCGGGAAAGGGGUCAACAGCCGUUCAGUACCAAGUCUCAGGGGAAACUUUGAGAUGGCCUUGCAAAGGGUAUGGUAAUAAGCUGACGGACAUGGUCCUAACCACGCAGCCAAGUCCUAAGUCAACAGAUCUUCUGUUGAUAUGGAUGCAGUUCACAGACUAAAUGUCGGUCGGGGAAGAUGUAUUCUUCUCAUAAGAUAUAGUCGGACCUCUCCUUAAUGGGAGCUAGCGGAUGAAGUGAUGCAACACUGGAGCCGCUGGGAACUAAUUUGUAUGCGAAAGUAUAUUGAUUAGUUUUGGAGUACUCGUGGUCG
CONDITION_DESCRIPTION: 30 °C

Supply self-splicing fitness (ln) value. Item: UAUAAGCAAUAUUACGGUGA -1

Supply self-splicing fitness (ln) value. Item: GCGGAGCAAUAUUACGUGAU -2.01

Supply self-splicing fitness (ln) value. Item: UCAUAGCAAUAUUACGGAGA -1.95

----------
Can you tell me self-splicing fitness (ln) for the items I'm about to list?
PROTOCOL_TEXT: self-splicing fitness, log relative to wild type (ln ratio); higher = more splicing; Tetrahymena group I intron in knt gene, E. coli kanamycin selection, DiMSum; sequences stand for … in CUCUCU…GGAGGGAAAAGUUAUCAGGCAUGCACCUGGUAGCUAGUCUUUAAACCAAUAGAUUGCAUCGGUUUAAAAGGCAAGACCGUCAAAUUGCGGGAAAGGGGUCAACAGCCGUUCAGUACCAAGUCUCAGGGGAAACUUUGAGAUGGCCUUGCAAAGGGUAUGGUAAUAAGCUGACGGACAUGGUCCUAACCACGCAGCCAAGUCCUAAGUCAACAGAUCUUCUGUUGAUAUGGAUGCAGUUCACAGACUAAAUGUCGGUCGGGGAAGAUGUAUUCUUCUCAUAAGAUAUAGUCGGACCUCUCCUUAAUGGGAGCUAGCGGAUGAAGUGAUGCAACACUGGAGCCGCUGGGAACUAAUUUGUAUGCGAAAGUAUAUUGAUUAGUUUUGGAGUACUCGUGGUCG
CONDITION_DESCRIPTION: 30 °C
Please state the value as a number alone, without comment.

Supply self-splicing fitness (ln) value. Item: AAACAGCAAUAUUACGCUGC -4.51

Supply self-splicing fitness (ln) value. Item: AACCAGCAAUAUUACGCGUU -3.77

Supply self-splicing fitness (ln) value. Item: UAUCAGCAAUAUUACGGAUG -1.11

Supply self-splicing fitness (ln) value. Item: UUGGAGCAAUAUUACGCGGG -3.26

Supply self-splicing fitness (ln) value. Item: GUGAAGCAAUAUUACGCCCG -0.347

Supply self-splicing fitness (ln) value. Item: CGGGAGCAAUAUUACGCAAG -3.14

Supply self-splicing fitness (ln) value. Item: GUAUAGCAAUAUUACGCAGC -2.32

Supply self-splicing fitness (ln) value. Item: GGUCAGCAAUAUUACGUGUG -1.39

Supply self-splicing fitness (ln) value. Item: ACGAAGCAAUAUUACGGCAC -2.03

Supply self-splicing fitness (ln) value. Item: UUGCAGCAAUAUUACGUGUU -3.1

Supply self-splicing fitness (ln) value. Item: GACAAGCAAUAUUACGUGUU -3.4

Supply self-splicing fitness (ln) value. Item: UCUGAGCAAUAUUACGAGUG -3.98

Supply self-splicing fitness (ln) value. Item: GCUCAGCAAUAUUACGCCGU -0.521

Supply self-splicing fitness (ln) value. Item: CAAAAGCAAUAUUACGUGUU -3.61

Supply self-splicing fitness (ln) value. Item: UAGUAGCAAUAUUACGGCGU -2.15

Supply self-splicing fitness (ln) value. Item: CUCGAGCAAUAUUACGGUUU -3.87

Supply self-splicing fitness (ln) value. Item: CUUGAGCAAUAUUACGACUG -0.383

Supply self-splicing fitness (ln) value. Item: GGCGAGCAAUAUUACGGGGC -3.65

Supply self-splicing fitness (ln) value. Item: CUUAAGCAAUAUUACGUCCA -2.93
